- targetEntity: T1, mouse programmed cell death protein 1 Fc fusion protein (mPD-1-Fc), mPD-1 C60S (aa 25-167) (Mus musculus, UniProt Q02242, stabilised)
- T1 construct: not cleaved; source: Expi293F, purified (Protein A, SEC; dimeric fraction); not shown: Fc (human), C-terminal, kept
- test: SPR; Carterra LSA; Fab from the ammonium sulfate precipitate of the culture supernatant immobilised on a NiHC200M chip; hPD-1 (1-1024 nM) or mPD-1-Fc (4-1024 nM) as analyte, fourfold dilution series, no regeneration; HBS-EP pH 7.4, 25 °C; medians over the spots of a construct, KD = koff/kon
- runParameters: one partner purified
reportedEndpoint: koff (s⁻¹)
Please give a number only; it is taken to be in s⁻¹.

binder	unitSpec	recordedNumber
toripalimab Fab H.T58Y (Fab, V domains shown, heavy chain of Sm3 with this change; numbers count from the chain's first residue; as the light chain of Sm3; source: Brevibacillus, culture supernatant (ammonium sulfate precipitate); not shown: 6xHis, C-terminal, kept; 6xHN, C-terminal, kept) VH: QGQLVQSGAEVKKPGASVKVSCKASGYTFTDYEMHWVRQAPIHGLEWIGVIESETGGYAYNQKFKGRVTITADKSTSTAYMELSSLRSEDTAVYYCAREGITTVATTYYWYFDVWGQGTTVTVSS VL: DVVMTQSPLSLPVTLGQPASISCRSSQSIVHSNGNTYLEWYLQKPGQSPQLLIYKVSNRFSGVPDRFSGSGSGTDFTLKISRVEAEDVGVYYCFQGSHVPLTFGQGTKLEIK	s⁻¹	0.0107
toripalimab Fab L.P100K (Fab, V domains shown, as the heavy chain of Sm3; light chain of Sm3 with this change; numbers count from the chain's first residue; source: Brevibacillus, culture supernatant (ammonium sulfate precipitate); not shown: 6xHis, C-terminal, kept; 6xHN, C-terminal, kept) VH: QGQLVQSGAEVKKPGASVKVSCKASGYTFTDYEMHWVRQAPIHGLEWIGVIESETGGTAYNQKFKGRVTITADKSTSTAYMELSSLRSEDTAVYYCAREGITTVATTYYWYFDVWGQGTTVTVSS VL: DVVMTQSPLSLPVTLGQPASISCRSSQSIVHSNGNTYLEWYLQKPGQSPQLLIYKVSNRFSGVPDRFSGSGSGTDFTLKISRVEAEDVGVYYCFQGSHVKLTFGQGTKLEIK	s⁻¹	0.000824

Could you now consider this next binder?
For the binder toripalimab Fab H.G66Y (Fab, V domains shown, heavy chain of Sm3 with this change; numbers count from the chain's first residue; as the light chain of Sm3; source: Brevibacillus, culture supernatant (ammonium sulfate precipitate); not shown: 6xHis, C-terminal, kept; 6xHN, C-terminal, kept) VH: QGQLVQSGAEVKKPGASVKVSCKASGYTFTDYEMHWVRQAPIHGLEWIGVIESETGGTAYNQKFKYRVTITADKSTSTAYMELSSLRSEDTAVYYCAREGITTVATTYYWYFDVWGQGTTVTVSS VL: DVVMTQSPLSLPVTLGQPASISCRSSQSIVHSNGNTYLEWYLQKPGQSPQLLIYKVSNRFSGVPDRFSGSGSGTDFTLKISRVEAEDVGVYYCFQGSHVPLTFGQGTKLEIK , report koff.
0.0111
